Answer each item with its documented pEC50.
Molecular target: adenosine A2b receptor (Homo sapiens)
Sequence (P29275 1-332): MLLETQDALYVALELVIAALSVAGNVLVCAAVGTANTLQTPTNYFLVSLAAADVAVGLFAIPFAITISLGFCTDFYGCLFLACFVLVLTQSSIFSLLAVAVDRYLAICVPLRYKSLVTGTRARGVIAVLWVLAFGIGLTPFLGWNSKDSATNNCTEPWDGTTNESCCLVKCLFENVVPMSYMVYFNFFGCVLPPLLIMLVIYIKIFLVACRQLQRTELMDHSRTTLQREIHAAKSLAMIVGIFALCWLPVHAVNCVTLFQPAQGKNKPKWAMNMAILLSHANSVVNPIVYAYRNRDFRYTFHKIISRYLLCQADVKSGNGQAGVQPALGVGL
Experiment: Indirect determination of adenosine agonism by way of gene expression (cAMP-dependent luciferase reporter), A2b cells
Details: stably transfected CHO cells; 50% of the maximum stimulation of luciferase
Give bare numbers, as −log10 of the molar value.

A selection of reference data follows.
[
  {
    "Sample Smiles": "COC(=O)c1c(N)c2c(-c3ccc(OCCO)cc3)c(C#N)c(SCc3cccc(C#N)c3)nc2n1C",
    "pEC50": 6.49
  },
  {
    "Sample Smiles": "Cn1c(C(N)=O)c(N)c2c(-c3ccc(OCCO)cc3)c(C#N)c(SCc3cccc(C(N)=O)c3)nc21",
    "pEC50": 6.12
  },
  {
    "Sample Smiles": "COC(=O)c1c(N)c2c(-c3ccc(OCCO)cc3)c(C#N)c(SCc3csc(-c4ccc(Cl)cc4)n3)nc2n1C",
    "pEC50": 6.26
  },
  {
    "Sample Smiles": "CNC(=O)c1c(N)c2c(-c3ccc(OCCO)cc3)c(C#N)c(SCc3csc(-c4ccc(Cl)cc4)n3)nc2n1C",
    "pEC50": 6.18
  },
  {
    "Sample Smiles": "COC(=O)Cn1c(C(=O)OC)c(N)c2c(-c3ccc(OCCO)cc3)c(C#N)c(SCc3csc(-c4ccc(Cl)cc4)n3)nc21",
    "pEC50": 5.81
  }
]

Consider the following items and state reported pEC50 for each.
1. COC(=O)c1c(N)c2c(-c3ccc(OCCO)cc3)c(C#N)c(SCc3ccc(OC)nc3)nc2n1C
2. COC(=O)c1c(N)c2c(-c3ccc(OCCO)cc3)c(C#N)c(SCc3cccc(C(N)=O)c3)nc2n1C

# output
1: 6.00; 2: 5.88

====

Target: adenosine A2a receptor (Homo sapiens, UniProt P29274)
Sequence (P29274 whole entry): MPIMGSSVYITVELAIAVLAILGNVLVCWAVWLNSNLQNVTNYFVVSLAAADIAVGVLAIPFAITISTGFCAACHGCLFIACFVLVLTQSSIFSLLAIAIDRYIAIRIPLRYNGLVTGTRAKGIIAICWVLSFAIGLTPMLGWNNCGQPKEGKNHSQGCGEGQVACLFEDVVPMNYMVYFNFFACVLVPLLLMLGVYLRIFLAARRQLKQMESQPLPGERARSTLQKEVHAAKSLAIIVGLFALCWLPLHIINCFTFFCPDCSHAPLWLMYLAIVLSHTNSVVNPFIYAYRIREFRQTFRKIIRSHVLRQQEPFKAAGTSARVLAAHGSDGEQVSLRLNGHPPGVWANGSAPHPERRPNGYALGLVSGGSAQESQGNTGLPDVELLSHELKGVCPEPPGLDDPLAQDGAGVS
Assay: Indirect determination of adenosine agonism by way of gene expression (cAMP-dependent luciferase reporter), A2a cells
Settings: stably transfected CHO cells; 50% of the maximum stimulation of luciferase
Measured Metric: pEC50
One number for each entry, as −log10 of the molar value.

Reference set, count: 2
[
  {
    "Sample Smiles": "COC(=O)c1c(N)c2c(-c3ccc(OC[C@@H](O)CO)cc3)c(C#N)c(SCc3coc(-c4ccc(Cl)cc4)n3)nc2n1C",
    "System": "adenosine A2a receptor (Homo sapiens, UniProt P29274)",
    "Measured Metric": "pEC50",
    "Endpoint Value": 6.22
  },
  {
    "Sample Smiles": "Cn1c(C(N)=O)c(N)c2c(-c3ccc(OCCO)cc3)c(C#N)c(SCc3csc(-c4ccc(Cl)cc4)n3)nc21",
    "System": "adenosine A2a receptor (Homo sapiens, UniProt P29274)",
    "Measured Metric": "pEC50",
    "Endpoint Value": 5.95
  }
]

# input # pEC50 lookup, item CNC(=O)c1c(N)c2c(-c3ccc(OCCO)cc3)c(C#N)c(SCc3csc(-c4ccc(Cl)cc4)n3)nc2n1C
# output 6.46
